# SYSTEM_NAME: Cytochrome P450 2C9 (Homo sapiens)
# ASSAY_METHOD_TEXT: Cytochrome panel assay with activity outcomes; note: % is set by controls: 0 for no effect and ±100 for the full control effect
# DETAILS: recombinant CYP, pro-luciferin dealkylation, luminescence, p450-cyp2c9; series mostly up to 57.1 µM
Out of some 16,000 compounds screened, about 4,000 (25%) were called active. Another 26% or so got no clear call; they are omitted. A selection follows.
molecules and their reported activity, negative = inhibition
QUANTITY_KIND: activity, negative = inhibition

> print(dat)
                                  mol.smiles                         system.name                           result
 1  CC(=O)OC[C@@H]1O[C@H](C/C=N\O[C@@H](C)CN2CCCc3nc(C)c(C)cc32)C=C[C@@H]1OC(C)=O  Cytochrome P450 2C9 (Homo sapiens)  -0.762% [at 11.4 µM] (inactive)
 2  COc1c(O)ccc2c1CN1CCc3cc4c(cc3[C@@H]1C2)OCO4  Cytochrome P450 2C9 (Homo sapiens)    1.47% [at 11.4 µM] (inactive)
 3            CN(Cc1ccco1)c1cc(-c2ccoc2)ncn1  Cytochrome P450 2C9 (Homo sapiens)   -1.76% [at 2.29 µM] (inactive)
 4  CC1=NN(C(=O)c2ccncc2)C(=O)[C@@H]1N=Nc1ccc2ccccc2c1  Cytochrome P450 2C9 (Homo sapiens)   -11.2% [at 11.4 µM] (inactive)
 5  COc1ccc(CNc2ccnc(-c3ccccc3CN(C)C)n2)c(OC)c1  Cytochrome P450 2C9 (Homo sapiens)    10.2% [at 2.29 µM] (inactive)
 6  CC(=O)OC[C@@H]1O[C@H](CCO/N=C\[C@@H](C)[C@H](OCc2ccccc2)C(C)C)C=C[C@@H]1OC(C)=O  Cytochrome P450 2C9 (Homo sapiens)   -15.4% [at 11.4 µM] (inactive)
 7  CC(C)CO/N=C1/C[C@@H](O)[C@@H](O)[C@@H]2[C@@H]3C(=O)N(C[C@@H]4CCCO4)C(=O)[C@H]3CC[C@H]12  Cytochrome P450 2C9 (Homo sapiens)    9.45% [at 11.4 µM] (inactive)
 8  C#CCCCO/N=C1/C[C@@H](O)[C@@H](O)[C@@H]2[C@@H]3C(=O)N([C@@H](C)c4ccccc4)C(=O)[C@H]3CC[C@H]12  Cytochrome P450 2C9 (Homo sapiens)   -17.4% [at 11.4 µM] (inactive)
 9    COCCNc1nc(-c2ccccc2C(F)(F)F)nc2ccccc12  Cytochrome P450 2C9 (Homo sapiens)   -9.26% [at 2.29 µM] (inactive)
10                        O=C(O)CNCCc1ccccc1  Cytochrome P450 2C9 (Homo sapiens)    12.3% [at 11.4 µM] (inactive)
11  Oc1cc(O)c2c(c1)O[C@H](c1ccc(O)c(O)c1)[C@@H](O)[C@@H]2c1c(O)cc(O)c2c1O[C@@H](c1ccc(O)c(O)c1)[C@H](O)C2  Cytochrome P450 2C9 (Homo sapiens)   -22.1% [at 11.4 µM] (inactive)
12    Cc1cnc(CNc2ncncc2-c2ccccc2C(F)(F)F)cn1  Cytochrome P450 2C9 (Homo sapiens)    1.53% [at 2.29 µM] (inactive)
13             CN(Cc1ccco1)c1ncncc1-c1cccnc1  Cytochrome P450 2C9 (Homo sapiens)    10.8% [at 2.29 µM] (inactive)
14  Nc1ccn([C@@H]2O[C@H](COC(=O)C34CC5CC(CC(C5)C3)C4)[C@@H](O)[C@@H]2O)c(=O)n1  Cytochrome P450 2C9 (Homo sapiens)  -0.936% [at 11.4 µM] (inactive)
15  Nc1nc(SCc2ccccc2[N+](=O)[O-])c2[nH]cnc2n1  Cytochrome P450 2C9 (Homo sapiens)   -28.6% [at 11.4 µM] (inactive)
16        [O-][N+](CCO)(CCO)c1ncnc2nc[nH]c12  Cytochrome P450 2C9 (Homo sapiens)    27.7% [at 11.4 µM] (inactive)
17            COc1ccccc1-c1cc(NCc2cccs2)ncn1  Cytochrome P450 2C9 (Homo sapiens)    17.3% [at 2.29 µM] (inactive)
18              Cc1ccccc1-c1cncnc1NCc1ccccc1  Cytochrome P450 2C9 (Homo sapiens)   -7.47% [at 2.29 µM] (inactive)
19  NS(=O)(=O)c1ccc(N=Nc2nc3[nH]c(=O)[nH]c(=O)c3[nH]2)cc1  Cytochrome P450 2C9 (Homo sapiens)   0.503% [at 11.4 µM] (inactive)
20  O=C1Nc2ccccc2C1=Nc1ccc(S(=O)(=O)Nc2nccs2)cc1  Cytochrome P450 2C9 (Homo sapiens)    8.43% [at 11.4 µM] (inactive)

====

# SYSTEM_NAME: Cytochrome P450 2C9 (Homo sapiens) (UniProt P11712)
# Sequence (P11712 whole entry, looked up): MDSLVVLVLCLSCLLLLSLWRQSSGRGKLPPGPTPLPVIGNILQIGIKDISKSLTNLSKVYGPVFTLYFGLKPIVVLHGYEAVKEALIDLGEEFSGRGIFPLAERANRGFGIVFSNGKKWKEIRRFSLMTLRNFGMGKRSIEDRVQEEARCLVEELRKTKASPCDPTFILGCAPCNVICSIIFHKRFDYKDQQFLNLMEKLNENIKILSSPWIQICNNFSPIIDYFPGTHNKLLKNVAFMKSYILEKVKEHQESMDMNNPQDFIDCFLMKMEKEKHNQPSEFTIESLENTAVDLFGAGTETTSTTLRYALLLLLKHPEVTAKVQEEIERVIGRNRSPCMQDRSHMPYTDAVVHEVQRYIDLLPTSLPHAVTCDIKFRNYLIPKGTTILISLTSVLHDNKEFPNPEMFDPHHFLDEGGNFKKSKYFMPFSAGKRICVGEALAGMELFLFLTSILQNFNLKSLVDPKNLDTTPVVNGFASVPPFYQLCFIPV
# ASSAY_METHOD_TEXT: Cytochrome panel assay with activity outcomes; note: % is set by controls: 0 for no effect and ±100 for the full control effect
# DETAILS: recombinant CYP, pro-luciferin dealkylation, luminescence, p450-cyp2c9; series mostly up to 57.1 µM
About 4,000 (25%) of roughly 16,000 compounds were called active. Another 26% or so got no clear call; they are omitted. Only a sample is shown. Square brackets hold non-standard residues; d marks the D form. Peptide text beside a SMILES is read from it.
QUANTITY_KIND: activity, negative = inhibition

> print(dat)
                                    compound                           result
 1           Nc1nc(SCc2ccccc2Cl)cc(C(=O)O)n1  0.0938% [at 11.4 µM] (inactive)
 2                  CN(C)CCOC(=O)c1ccc(N)cc1   -8.18% [at 11.4 µM] (inactive)
 3            C[C@@H](C[C@H](N)C(=O)O)C(=O)O   0.375% [at 11.4 µM] (inactive)
 4           O=C(O)[C@H](CCc1ccccn1)c1ccccc1   -5.61% [at 11.4 µM] (inactive)
 5      Cn1c([N+](=O)[O-])cnc1CN1CCN(CCO)CC1     8.6% [at 11.4 µM] (inactive)
 6          COc1ccccc1-c1nc(N(C)C)c2ccccc2n1   -2.29% [at 2.29 µM] (inactive)
 7     Cc1ccc2nc(N/N=C\c3cccc(C)n3)cc(C)c2c1     7.2% [at 11.4 µM] (inactive)
 8              COc1cc(C)cc(OC)c1/C=C\C(=O)O   -15.8% [at 11.4 µM] (inactive)
 9          COc1ccccc1-c1ccc2ncnc(N(C)C)c2c1   -21.1% [at 2.29 µM] (inactive)
10  Cc1cc2c(c(=O)o1)[C@@H](O)[C@H]1O[C@@H]1C2=O   -1.55% [at 11.4 µM] (inactive)
11            NNC(=O)c1ccc[n+](CCc2ccccc2)c1   -1.12% [at 11.4 µM] (inactive)
12  CC[C@@]1(O)C(=O)OCc2c1cc1n(c2=O)Cc2cc3c(CN(C)C)c(O)ccc3nc2-1   -1.39% [at 11.4 µM] (inactive)
13  CO[C@H]1COC(=O)C/C=C\[C@@H](C)[C@H](OC)COC(=O)[C@H]2CCCN2C(=O)C/C=C\[C@@H]1C    12.3% [at 11.4 µM] (inactive)
14                      C/C(CC/C(C)=N/O)=N/O   -9.93% [at 11.4 µM] (inactive)
15                    CC(C)N(CC(=O)O)CC(=O)O   -8.23% [at 11.4 µM] (inactive)
16  FC(F)(F)c1ccccc1-c1nc(NC2CCNCC2)c2ccccc2n1    14.5% [at 2.29 µM] (inactive)
17  O=C(O)c1ccc(NCc2nc3cc4ccccc4cc3[nH]2)cc1    8.12% [at 11.4 µM] (inactive)
18  C[C@@H]1/C=C\CC(=O)OC[C@H](C)C(=O)N[C@@H](Cc2ccccc2)C(=O)OC1    10.4% [at 11.4 µM] (inactive)
19  CC(C)(C)c1ccc(OC(=O)Nc2ccc(O)c(C(=O)O)c2)cc1   -20.8% [at 11.4 µM] (inactive)
20  Nc1c(S(N)(=O)=O)cc(S(N)(=O)=O)cc1S(N)(=O)=O    -3.4% [at 11.4 µM] (inactive)
21              Cc1ccc(CSC(N)=Nc2ccccc2)cc1C    7.44% [at 11.4 µM] (inactive)
22      O=C(O)c1cc(N=Cc2ccccc2O)cc(C(=O)O)c1    7.44% [at 11.4 µM] (inactive)
23    CN(C)c1ncnc2ccc(-c3ccccc3C(F)(F)F)cc12   -18.7% [at 2.29 µM] (inactive)
24            O=C(O)c1cc(C(=O)O)nc(C(=O)O)c1    13.5% [at 11.4 µM] (inactive)
25    c1ccc(C(CCN2CC3CCC(CC3)C2)c2ccccc2)cc1    8.36% [at 11.4 µM] (inactive)
26  CO[C@H]1COC(=O)[C@H]2CCCN2C(=O)C/C=C\[C@@H](C)[C@H](OC)COC(=O)C/C=C\[C@@H]1C    13.8% [at 11.4 µM] (inactive)
27  COCOc1ccc(Br)cc1C(=O)[C@H]1O[C@H]1c1cccc(OC)c1    8.38% [at 11.4 µM] (inactive)
28               CNc1cc(-c2ccccc2CN(C)C)ncn1    24.8% [at 2.29 µM] (inactive)
29   COc1ccc(CNc2ccnc(-c3ccccc3Cl)n2)c(OC)c1   -11.5% [at 2.29 µM] (inactive)
30             COc1ccccc1-c1cncnc1NCc1cccnc1    3.29% [at 2.29 µM] (inactive)
31           COc1ccccc1-c1cc(NCc2cccnc2)ncn1   -17.3% [at 2.29 µM] (inactive)
32          COCCNc1cc(-c2ccccc2C(F)(F)F)ncn1    6.38% [at 2.29 µM] (inactive)
33  O=C(O)c1cccc(C(=O)O)c1S(=O)Cc1ccccc1 (configuration not stated)    7.56% [at 11.4 µM] (inactive)
34  O=C1[C@H]2[C@H]3[C@H](O)[C@H](O)C/C(=N/OC[C@@H](O)COCc4ccco4)[C@H]3CC[C@@H]2C(=O)N1C[C@@H]1CCCO1    7.75% [at 11.4 µM] (inactive)
35    COc1ccc2nc(NCN3C(=O)c4ccccc4C3=O)sc2c1   -14.8% [at 11.4 µM] (inactive)
36  CN1CCN(c2nc(-c3cccc(C#N)c3)nc3ccccc23)CC1   -2.12% [at 2.29 µM] (inactive)
37  CCN(CC)CC[n+]1ccc2c(C)c3[nH]c4ccccc4c3c(C)c2c1    3.85% [at 11.4 µM] (inactive)
38   COc1cccc(-c2nc(NCCNC(C)=O)c3ccccc3n2)c1    22.4% [at 2.29 µM] (inactive)
39   COc1cccc(-c2ccc3ncnc(NCCNC(C)=O)c3c2)c1   -1.53% [at 2.29 µM] (inactive)
40  Cc1ccccc1S(=O)(=O)O[C@@H]1NS(=O)(=O)c2ccccc21    20.8% [at 11.4 µM] (inactive)
41    O=c1c[n+](CCCC[n+]2cc(=O)o[nH]2)[nH]o1    10.6% [at 11.4 µM] (inactive)
42  COc1cccc([C@@H]2Oc3ccc(OC)cc3C(=O)[C@H]2O)c1   -9.12% [at 11.4 µM] (inactive)
43                         S=C(S)NCCN1CCNCC1   -16.5% [at 11.4 µM] (inactive)
44                      O=C(O)c1cccc(OCCO)c1     -19% [at 11.4 µM] (inactive)
45          Clc1ccccc1-c1nccc(NCCN2CCOCC2)n1    29.8% [at 2.29 µM] (inactive)
46   NCC(=O)N[C@H](CO)C(=O)O (H-Gly-[dS]-OH)    12.1% [at 11.4 µM] (inactive)
47  CCN1C(=O)[C@H]2[C@H]3[C@H](O)[C@H](O)C/C(=N/OC[C@@H](O)COCc4ccco4)[C@H]3CC[C@@H]2C1=O    1.57% [at 11.4 µM] (inactive)
